pIC50: −log10 of the molar value.
Published pIC50 for UniProtKB P11497, assembled from different documents, is shown next.
assay_metric: pIC50

molecule=COc1cccc2c1C(=O)CC1(CCN(C(=O)c3ccc4[nH]c(-c5ccccn5)nc4c3)CC1)O2 assay_metric=pIC50 readout_number=7.59
molecule="Cc1cc(C(=O)N2CCC3(CCN(C(=O)OC(C)(C)C)C3)CC2C)cc2cn[nH]c12 (stereo in doubt; 3.3.1)" assay_metric=pIC50 readout_number=5.10
molecule=COc1cccc2c1C(=O)CC1(CCN(C(=O)c3ccc4nc(-c5ccncc5)[nH]c4c3)CC1)O2 assay_metric=pIC50 readout_number=7.22
molecule=Cc1ccc2cc(CC3CCN(C(=O)c4cccc(-c5cc[nH]n5)c4)CC3)ccc2n1 assay_metric=pIC50 readout_number=5.52
molecule=CCNC(=O)Nc1sc2c(OC)cccc2c1C(=O)N1CCC(N2CCCC3(C2)C(=O)N2CCCCN2C3=O)CC1 assay_metric=pIC50 readout_number=7.55
molecule="Cc1cc(C(=O)N2CCC3(CCN(C(=O)OC(C)(C)C)C3)C2)cc2cn[nH]c12 (stereo not drawn)" assay_metric=pIC50 readout_number=4.96
molecule=Cc1cc(C(=O)N2CCC3(CC2)CN(C(=O)O[C@H](C)c2ccccc2)C3)cc2cn[nH]c12 assay_metric=pIC50 readout_number=6.51
molecule=COc1cccc2c1C(=O)CC1(CCN(C(=O)c3cc(C)c4[nH]nc(C)c4c3)CC1)O2 assay_metric=pIC50 readout_number=7.38

----------
Across several studies, molecules have been characterized by their IC50 on Acetyl-CoA carboxylase 1 (Rattus norvegicus); a selection follows.
assay_metric: IC50

mol_smiles=Cc1cc(C(=O)N2CCC3(CC2)CC(=O)c2nn(C4CCCCC4)cc2O3)cc2cn[nH]c12 test_system="Acetyl-CoA carboxylase 1 (Rattus norvegicus)" result="0.046 µM"
mol_smiles=Cc1cc(C(=O)N2CCC3(CC2)CCN(C(=O)OCC(C)(C)C)[C@@H]3C)cc2cn[nH]c12 test_system="Acetyl-CoA carboxylase 1 (Rattus norvegicus)" result="0.026 µM"
mol_smiles=Cc1cc(C(=O)N2CCC3(CC2)CC(=O)c2nn(C)cc2O3)cc2cn[nH]c12 test_system="Acetyl-CoA carboxylase 1 (Rattus norvegicus)" result="0.37 µM"
mol_smiles=Cc1cc(C(=O)N2CCC3(CC2)CC(=O)c2ncccc2O3)cc2cn[nH]c12 test_system="Acetyl-CoA carboxylase 1 (Rattus norvegicus)" result="0.154 µM"
mol_smiles=COc1cc(C(=O)N2CCC3(CC2)CC(=O)c2c(cnn2C(C)C)C3)cc(-c2ccc(C(=O)O)cc2)n1 test_system="Acetyl-CoA carboxylase 1 (Rattus norvegicus)" result="0.00753 µM"
mol_smiles=Cc1cc(C(=O)N2CCC3(CC2)CC(=O)c2cc(-c4ccn(C)n4)ccc2O3)cc2cn[nH]c12 test_system="Acetyl-CoA carboxylase 1 (Rattus norvegicus)" result="0.031 µM"
mol_smiles=Cc1cc(C(=O)N2CCC3(CCN(C(=O)OCc4ccccc4)C3)CC2)cc2cn[nH]c12 test_system="Acetyl-CoA carboxylase 1 (Rattus norvegicus)" result="2.1 µM"
mol_smiles=Cn1ncc2ccc(C(=O)N3CCC4(CC3)CC(=O)c3nn(C(C)(C)C)cc3O4)cc21 test_system="Acetyl-CoA carboxylase 1 (Rattus norvegicus)" result="0.013 µM"
mol_smiles=Cc1cc(C(=O)N2CCC3(CC2)CC(=O)c2cc(-c4cn[nH]c4)ccc2O3)cc2cn[nH]c12 test_system="Acetyl-CoA carboxylase 1 (Rattus norvegicus)" result="0.0074 µM"
